# Test system: antioxidant response element (ARE)
# experimentNotes: ARE luciferase reporter assay in HepG2-ARE-C8 cells
# Format: cell-based
# runConditions: 5 μM, HepG2-ARE-C8, 12 h of treatment, mean ± SD n = 3; read-out: ARE Inductivity in Luciferase Reporter Assay (induction fold)
Provide the recorded fold induction at 5 µM for the entries that follow.
Reply briefly: the number, and no unit.

Which fold induction at 5 µM value is on record for O=C(C=C1NCC2CCCCN2C1=O)c1cccc(Cl)c1 (stereo not shown) ? 10.2

Further, for CC(=O)Nc1ccc(C(=O)C=C2NCC3c4ccccc4CCN3C2=O)cc1 (stereo not shown) ? 1.49

Further, for O=C(C=C1NCC2c3ccccc3CCN2C1=O)C1CCCC1 (stereo not shown) ? 4.06

Further, for O=C(C=C1NCC2c3ccccc3CCN2C1=O)c1ccc(N2CCOCC2)cc1 (stereo not shown) ? 1.37

Further, for O=C(C=C1NCC2CCCCN2C1=O)c1nccs1 (stereo not shown) ? 6.41

Further, for O=C(C=C1NCC2c3ccccc3CCN2C1=O)C1CCC1 (stereo not shown) ? 5.73

Further, for O=C(C=C1NCC2CCCCN2C1=O)c1ccccc1 (stereo not shown) ? 15.8

Further, for Nc1cccc(C(=O)C=C2NCC3c4ccccc4CCN3C2=O)c1 (stereo not shown) ? 2.4

Further, for O=C(C=C1NCC2c3ccccc3CCN2C1=O)c1cnc2ccccc2c1 (stereo not shown) ? 3.62

Further, for CC(C)(C)c1cc(O)ccc1O [tBHQ, tert-butylhydroquinone, reference compound] ? 1.67

Further, for O=C(C=C1NCC2CCCCN2C1=O)c1ccco1 (stereo not shown) ? 6.41

Further, for CCCC(=O)C=C1NCC2c3ccccc3CCN2C1=O (stereo not shown) ? 2.55

Further, for COc1cccc(C(=O)C=C2NCC3CCCCN3C2=O)c1 (stereo not shown) ? 6.59

Further, for O=C(C=C1NCC2CCCCN2C1=O)c1cccc([N+](=O)[O-])c1 (stereo not shown) ? 12

Further, for Nc1ccc(C(=O)C=C2NCC3c4ccccc4CCN3C2=O)cc1 (stereo not shown) ? 2.78

Further, for O=C(C=C1NCC2CCCCN2C1=O)c1cccc(F)c1 (stereo not shown) ? 24.8
